Biological target: T1, IL-6R-Fc 항원 (human, UniProt P08887 20-365, limits assumed)
T1 construct: domain: IL-6R full domain; Made in-house as IL-6R-Fc; also called IL-6R full; IL-6R full domain인 단백질; not shown: Fc part (vector pYK 604)
T1 sequence (looked up): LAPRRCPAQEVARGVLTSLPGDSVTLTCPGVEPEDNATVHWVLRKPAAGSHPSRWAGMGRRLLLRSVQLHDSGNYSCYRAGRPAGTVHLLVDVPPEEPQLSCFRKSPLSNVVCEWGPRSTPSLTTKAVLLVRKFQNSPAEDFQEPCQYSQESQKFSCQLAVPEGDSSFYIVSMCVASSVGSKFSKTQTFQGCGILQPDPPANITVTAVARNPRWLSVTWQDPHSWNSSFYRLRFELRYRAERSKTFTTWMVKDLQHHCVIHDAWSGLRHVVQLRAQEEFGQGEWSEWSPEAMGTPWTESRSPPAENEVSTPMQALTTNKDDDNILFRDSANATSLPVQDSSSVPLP
Test: ELISA; IL-6R coated 100 ng/well; IgG at 0.19531 nM; anti-Fab-HRP
observation_type: OD 490 nm
Write your answer as a measured quantity: the number, then the unit.

Please review the following examples before continuing.
binder	observed_measurement
항 IL-6R 단클론 항체 B10 (antibody, V domains shown) VH: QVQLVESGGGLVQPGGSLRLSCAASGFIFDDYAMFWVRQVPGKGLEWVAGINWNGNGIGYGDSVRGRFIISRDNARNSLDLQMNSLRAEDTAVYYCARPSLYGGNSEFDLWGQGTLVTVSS VL: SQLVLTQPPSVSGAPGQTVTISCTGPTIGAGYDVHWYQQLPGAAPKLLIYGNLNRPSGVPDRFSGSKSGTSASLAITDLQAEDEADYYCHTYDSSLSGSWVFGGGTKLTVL	0.429 OD490
항 IL-6R 단클론 항체 F2 (antibody, V domains shown) VH: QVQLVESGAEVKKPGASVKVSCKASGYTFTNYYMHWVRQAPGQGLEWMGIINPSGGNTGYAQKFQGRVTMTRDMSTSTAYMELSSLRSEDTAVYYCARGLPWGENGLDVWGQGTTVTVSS VL: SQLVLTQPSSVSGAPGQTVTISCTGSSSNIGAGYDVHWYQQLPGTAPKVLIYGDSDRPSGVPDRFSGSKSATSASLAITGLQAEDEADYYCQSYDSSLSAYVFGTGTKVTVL	1.01 OD490
항 IL-6R 단클론 항체 A7 (antibody, V domains shown) VH: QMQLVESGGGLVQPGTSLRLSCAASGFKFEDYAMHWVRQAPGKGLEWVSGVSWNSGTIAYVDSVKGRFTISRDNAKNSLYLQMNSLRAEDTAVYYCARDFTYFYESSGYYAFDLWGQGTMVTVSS VL: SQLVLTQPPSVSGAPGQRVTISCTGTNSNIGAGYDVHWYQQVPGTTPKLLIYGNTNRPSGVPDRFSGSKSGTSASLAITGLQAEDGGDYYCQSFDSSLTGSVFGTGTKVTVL	0.546 OD490

Then there is this binder:
What does the record list as OD 490 nm for 항 IL-6R 단클론 항체 D2 (antibody, V domains shown) VH: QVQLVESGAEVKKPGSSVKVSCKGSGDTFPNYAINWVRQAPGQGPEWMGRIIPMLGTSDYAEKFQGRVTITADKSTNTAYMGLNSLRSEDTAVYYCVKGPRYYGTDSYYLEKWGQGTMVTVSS VL: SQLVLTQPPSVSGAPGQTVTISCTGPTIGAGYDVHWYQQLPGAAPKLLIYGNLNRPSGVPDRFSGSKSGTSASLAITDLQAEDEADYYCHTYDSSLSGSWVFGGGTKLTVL ?
0.469 OD490
